Cited source: ChEMBL document CHEMBL3991601

System Name: Ferrochelatase, mitochondrial (Homo sapiens, UniProt P22830); also: in the data inactive means no Kd found up to 30 µM
Sequence (P22830 whole entry): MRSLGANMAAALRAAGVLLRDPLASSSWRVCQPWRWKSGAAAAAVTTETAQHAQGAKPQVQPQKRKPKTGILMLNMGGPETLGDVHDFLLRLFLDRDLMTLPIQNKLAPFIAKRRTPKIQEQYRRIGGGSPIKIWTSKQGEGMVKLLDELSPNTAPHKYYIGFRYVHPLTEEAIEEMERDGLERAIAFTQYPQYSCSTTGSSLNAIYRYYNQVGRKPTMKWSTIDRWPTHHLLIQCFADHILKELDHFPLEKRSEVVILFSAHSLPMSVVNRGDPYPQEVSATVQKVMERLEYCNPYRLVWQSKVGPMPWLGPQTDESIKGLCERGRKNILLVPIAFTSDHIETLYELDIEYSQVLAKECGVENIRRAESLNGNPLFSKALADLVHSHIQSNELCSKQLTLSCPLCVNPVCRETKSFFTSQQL
Activity calls are given as the source filed them.
Classes used: YES (active), NO (inactive)

Chemical Structure: CCc1nc(C(N)=O)c(Nc2ccc(N3CCC(N4CCN(C)CC4)CC3)c(OC)c2)nc1NC1CCOCC1
Qualitative Label: NO
--
Chemical Structure: O=S(=O)(c1cccc2cnccc12)N1CCCNCC1
Qualitative Label: NO
--
Chemical Structure: CCOc1ccn(-c2ccc(F)cc2)c(=O)c1C(=O)Nc1ccc(Oc2ccnc(N)c2Cl)c(F)c1
Qualitative Label: NO
--
Chemical Structure: O=C(NC[C@H](O)CO)c1ccncc1Nc1ccc(I)cc1F
Qualitative Label: NO
--
Chemical Structure: NC(=O)c1ccc(N(C(N)=O)c2c(F)cccc2F)nc1-c1ccc(F)cc1F
Qualitative Label: NO
--
Chemical Structure: C[C@]1(O)C[C@@H](c2nc(-c3ccc4ccc(-c5ccccc5)nc4c3)c3c(N)nccn32)C1
Qualitative Label: YES
--
Chemical Structure: CN1CCN(c2nc(C3=C(c4c[nH]c5ccccc45)C(=O)NC3=O)c3ccccc3n2)CC1
Qualitative Label: NO
